Where do the numbers come from? From PubChem BioAssay AID1963854.

system: 186277-243-T-J2-PDC complex spheroid viability; experiment: Anticancer human tumor 186277-243-T-J2-PDC patient-derived colon adenocarcinoma cell line growth inhibition [POLQ]; details: second compound 0.0316 µM; first compound 10 µM; hits give low values;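 note: spheroids exposed to compounds for seven days; 100% = DMSO vehicle control viability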
MEASURED_METRIC: viability, T/C (%)

MOLECULE: CCCS(=O)(=O)Nc1ccc(F)c(C(=O)c2c[nH]c3ncc(-c4ccc(Cl)cc4)cc23)c1F + COC1C(OC(N)=O)C(O)C(Oc2ccc3c(O)c(NC(=O)c4ccc(O)c(CC=C(C)C)c4)c(=O)oc3c2C)OC1(C)C
VAL: 41.5
//
MOLECULE: CCCS(=O)(=O)Nc1ccc(F)c(C(=O)c2c[nH]c3ncc(-c4ccc(Cl)cc4)cc23)c1F + Nc1ccc(C#CCN(C(=O)Cc2ncc(C(F)(F)F)cc2C(F)(F)F)c2ccc(F)cc2)nn1
VAL: 66.3
//
MOLECULE: Nc1ccn(C2OC(CO)C(O)C2(F)F)c(=O)n1 (stereo not given) + Nc1ccc(C#CCN(C(=O)Cc2ncc(C(F)(F)F)cc2C(F)(F)F)c2ccc(F)cc2)nn1
VAL: 13.6
//
MOLECULE: CC1COCCN1c1cc(C2(O)CC3CCC(C2)O3)c2cnn(-c3ccn[nH]3)c2n1 (stereo not given) + COC1C(OC(N)=O)C(O)C(Oc2ccc3c(O)c(NC(=O)c4ccc(O)c(CC=C(C)C)c4)c(=O)oc3c2C)OC1(C)C
VAL: 3.36
//
MOLECULE: CNCc1ccc(-c2[nH]c3cc(F)cc4c3c2CCNC4=O)cc1 + Nc1ccc(C#CCN(C(=O)Cc2ncc(C(F)(F)F)cc2C(F)(F)F)c2ccc(F)cc2)nn1
VAL: 126
//
MOLECULE: C=CC(=O)N1CCN(c2nc(=O)n(-c3c(C)ccnc3C(C)C)c3nc(-c4c(O)cccc4F)c(F)cc23)C(C)C1 (stereo not given) + Cc1cccc(N(C)C(=O)C2C(O)CCN2c2nc(C)cc(C(F)(F)F)c2C#N)c1
VAL: 103
//
MOLECULE: O=C(c1cc(Cc2n[nH]c(=O)c3ccccc23)ccc1F)N1CCN(C(=O)C2CC2)CC1 + Nc1ccc(C#CCN(C(=O)Cc2ncc(C(F)(F)F)cc2C(F)(F)F)c2ccc(F)cc2)nn1
VAL: 121
//
MOLECULE: CCc1cc2c(N3CCc4c(cc(Cn5ccnc5)cc4-c4cn(C)nc4C(F)(F)F)C3=O)ccnc2c(OC)n1 + Cc1cccc(N(C)C(=O)C2C(O)CCN2c2nc(C)cc(C(F)(F)F)c2C#N)c1
VAL: 100
//
MOLECULE: COc1cccc2c1C(=O)c1c(O)c3c(c(O)c1C2=O)CC(O)(C(=O)CO)CC3OC1CC(N)C(O)C(C)O1 (stereo not given) + Cc1cccc(N(C)C(=O)C2C(O)CCN2c2nc(C)cc(C(F)(F)F)c2C#N)c1
VAL: 0.39
//
MOLECULE: Nc1ccn(C2OC(CO)C(O)C2(F)F)c(=O)n1 (stereo not given) + COC1C(OC(N)=O)C(O)C(Oc2ccc3c(O)c(NC(=O)c4ccc(O)c(CC=C(C)C)c4)c(=O)oc3c2C)OC1(C)C
VAL: 5.3
//
MOLECULE: C=CC(=O)N1CCN(c2nc(=O)n(-c3c(C)ccnc3C(C)C)c3nc(-c4c(O)cccc4F)c(F)cc23)C(C)C1 (stereo not given) + COC1C(OC(N)=O)C(O)C(Oc2ccc3c(O)c(NC(=O)c4ccc(O)c(CC=C(C)C)c4)c(=O)oc3c2C)OC1(C)C
VAL: 85.9
//
MOLECULE: CC1COCCN1c1cc(C2(S(C)(=N)=O)CC2)nc(-c2ccnc3[nH]ccc23)n1 (stereo not given) + Cc1cccc(N(C)C(=O)C2C(O)CCN2c2nc(C)cc(C(F)(F)F)c2C#N)c1
VAL: 6.1
//
MOLECULE: COc1ccc([C@@H](O)c2cc(-c3ncnc4cc(N5CCOCC5)ccc34)c(F)cc2Cl)nn1 + COC1C(OC(N)=O)C(O)C(Oc2ccc3c(O)c(NC(=O)c4ccc(O)c(CC=C(C)C)c4)c(=O)oc3c2C)OC1(C)C
VAL: 30.7
//
MOLECULE: CCc1cc2c(N3CCc4c(cc(Cn5ccnc5)cc4-c4cn(C)nc4C(F)(F)F)C3=O)cc(C)nc2c(OC)n1 + Cc1cccc(N(C)C(=O)C2C(O)CCN2c2nc(C)cc(C(F)(F)F)c2C#N)c1
VAL: 95.2
//
MOLECULE: O=C(Nc1ccc(O)c(NS(=O)(=O)c2ccc(F)cc2)c1)c1ccc(-c2ccccc2)cc1 + Cc1cccc(N(C)C(=O)C2C(O)CCN2c2nc(C)cc(C(F)(F)F)c2C#N)c1
VAL: 107
//
MOLECULE: O=C(c1cc(Cc2n[nH]c(=O)c3ccccc23)ccc1F)N1CCN(C(=O)C2CC2)CC1 + COC1C(OC(N)=O)C(O)C(Oc2ccc3c(O)c(NC(=O)c4ccc(O)c(CC=C(C)C)c4)c(=O)oc3c2C)OC1(C)C
VAL: 66.7
//
MOLECULE: C=CC(=O)N1CCN(c2nc(=O)n(-c3c(C)ccnc3C(C)C)c3nc(-c4c(O)cccc4F)c(F)cc23)C(C)C1 (stereo not given) + Nc1ccc(C#CCN(C(=O)Cc2ncc(C(F)(F)F)cc2C(F)(F)F)c2ccc(F)cc2)nn1
VAL: 101
//
MOLECULE: CC(C)n1c(=O)n(C)c2cnc3cc(F)c(-c4ccc(OCCCN5CCCCC5)nc4)cc3c21 + Nc1ccc(C#CCN(C(=O)Cc2ncc(C(F)(F)F)cc2C(F)(F)F)c2ccc(F)cc2)nn1
VAL: 108
//
MOLECULE: CC1COCCN1c1cc(-c2ccnn2C)c2ccnc(-c3ccn[nH]3)c2n1 (stereo not given) + Cc1cccc(N(C)C(=O)C2C(O)CCN2c2nc(C)cc(C(F)(F)F)c2C#N)c1
VAL: 4.75
//
MOLECULE: COc1cc2cc(C(=O)CCC(=O)O)sc2cc1OC + Nc1ccc(C#CCN(C(=O)Cc2ncc(C(F)(F)F)cc2C(F)(F)F)c2ccc(F)cc2)nn1
VAL: 85.6
